These entries and their values trace back to paper PMC7984888.

Listed below: viability at 48 h, 32 µM values for each entry.
Test: WST-1 cell viability
Format: cell-based
Details: human, uninfected HeLa cells, WST-1, relative to DMSO control as 100%
Protocol: Uninfected HeLa cells were cultured with 32 μM (the highest concentration used in antichlamydial analysis) of individual compound or 0.5% DMSO for 48 h. After 10 μL of WST-1 reagent was added, cells were incubated for an additional 1 h, and absorbance at 450 nm was recorded. The viability of compound-treated cells was calculated by the absorbance relative to that of DMSO control setting as 100% [22].

As a guide, the following entries are already answered.
# compound, result
records = [
    ("Cc1ccc(N2C(c3ccccc3)CC3C(c4ccccc4Br)N(c4ccccc4)OC32)cc1 (stereo not drawn) [Compound 13]", "95.7%"),
    ("COc1ccc(N2C(c3ccccc3)CC3C(c4ccc(Br)cc4)N(c4ccccc4)OC32)cc1 (stereo not drawn) [Compound 6]", "~90%"),
]

### Prompt Requested field: viability at 48 h, 32 µM. Item: Brc1ccccc1C1C2CC(c3ccccc3)N(c3ccccc3)C2ON1c1ccccc1 (stereo not drawn) [Compound 7]
### Response ~90%
